Ki values by entry
System tested: factor Xa (Homo sapiens)
Sequence (P00742 235-488 limits assumed): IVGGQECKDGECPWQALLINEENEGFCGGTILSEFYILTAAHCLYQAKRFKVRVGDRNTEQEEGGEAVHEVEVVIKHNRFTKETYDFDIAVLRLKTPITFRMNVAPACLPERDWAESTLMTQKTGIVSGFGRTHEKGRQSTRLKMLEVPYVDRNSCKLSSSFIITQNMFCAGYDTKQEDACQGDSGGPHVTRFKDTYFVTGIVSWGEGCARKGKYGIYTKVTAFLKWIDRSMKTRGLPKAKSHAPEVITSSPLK
Sequence (P00742 41-179 partner limits assumed): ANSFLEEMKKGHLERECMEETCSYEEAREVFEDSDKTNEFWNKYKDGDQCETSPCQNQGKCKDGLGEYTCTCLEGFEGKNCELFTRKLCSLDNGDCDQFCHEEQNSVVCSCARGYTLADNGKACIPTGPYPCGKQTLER
Experimental details: In vitro Factor Xa assay (Test 1a), chromogenic substrate S-2765
Assay type: biochemical
Set-up: purchased Enzyme Research Laboratories, Inc; South Bend, Ind
Condition details: Factor Xa inhibitory activity; Ki from IC50 corrected for substrate competition; 25° C., pH 7.8; read-out: Ki (FXa)
Where a name gives a salt, the structure may show the parent alone.
Property: Ki (nM)

{"columns": ["Compound", "System tested", "Uom", "Assay result"],
 "data": [
  ["C=CCNC(=O)C(Cc1ccc(C(=N)N)cc1)C(=O)N[C@@H](COCc1ccccc1)C(=O)N[C@@H](CCCNC(=N)N)C(N)=O (some centres unmarked) [Example 61, trifluoroacetic acid salt]", "factor Xa (Homo sapiens)", "nM", 957],
  ["C=CCOC(=O)[C@H](CCCNC(=N)N)NC(=O)[C@@H](NC(=O)C(Cc1ccc(C(=N)N)cc1)C(=O)N(C)Cc1ccccc1)C1CCCCC1 (single isomer, unassigned; less polar)", "factor Xa (Homo sapiens)", "nM", 1],
  ["CN(C)C(=O)C(Cc1ccc(C(=N)NO)cc1)C(=O)N[C@H](C(=O)N[C@@H](CCCNC(=N)N)C(N)=O)C1CCCCC1 (single isomer, unassigned; less polar)", "factor Xa (Homo sapiens)", "nM", 156],
  ["CCCC[C@H](NC(=O)C(Cc1ccc(C(=N)N)cc1)C(=O)NC)C(=O)N[C@@H](CCCNC(=N)N)C(N)=O (some centres unmarked) [Example 28, trifluoroacetic acid salt]", "factor Xa (Homo sapiens)", "nM", 47],
  ["N=C(N)NCCC[C@H](NC(=O)[C@@H](NC(=O)C(Cc1ccc(C(=N)NO)cc1)C(=O)NCc1ccccc1)C1CCCCC1)C(N)=O (single isomer, unassigned; more polar) [Example 129]", "factor Xa (Homo sapiens)", "nM", 360]
]}

Measured values drawn from patent US6794365B2 for this set.
